EXPERIMENTAL_SYSTEM: 5-hydroxytryptamine receptor 2C (Homo sapiens, UniProt P28335)
Sequence (P28335 whole entry): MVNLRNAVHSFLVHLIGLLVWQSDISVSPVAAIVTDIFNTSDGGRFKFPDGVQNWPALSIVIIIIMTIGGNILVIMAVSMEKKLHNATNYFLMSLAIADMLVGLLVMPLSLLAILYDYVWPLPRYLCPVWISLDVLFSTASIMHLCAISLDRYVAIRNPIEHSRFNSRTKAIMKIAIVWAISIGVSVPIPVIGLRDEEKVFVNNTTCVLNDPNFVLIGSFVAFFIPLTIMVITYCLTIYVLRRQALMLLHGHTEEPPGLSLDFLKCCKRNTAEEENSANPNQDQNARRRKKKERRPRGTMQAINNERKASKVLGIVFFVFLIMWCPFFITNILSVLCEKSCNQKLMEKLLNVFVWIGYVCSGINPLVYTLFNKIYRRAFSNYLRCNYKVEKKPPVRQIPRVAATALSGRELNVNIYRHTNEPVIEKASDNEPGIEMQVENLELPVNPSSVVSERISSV
PROCEDURE_SUMMARY: Partial agonist activity at human 5-HT2C receptor expressed in human tsA201 cells after 30 mins by inositol phosphate turnover assay
Format: functional, cell-based
REPORTED_PROPERTY: EC50 (nM)
Give a bare numeral; the unit nM is implied.

(Q) # return EC50 for COc1cc(CCNCc2cccc3c2OCO3)c(OC)cc1Br , test system: 5-hydroxytryptamine receptor 2C (Homo sapiens, UniProt P28335)
(A) 219
